attribute-measured: melting point

{"columns": ["compound", "attribute-measured", "result"],
 "data": [
  ["CN(C)c1ccc(-c2cc(C(F)(F)F)c3c(-c4ccccc4)nn(COCC[Si](C)(C)C)c3n2)cc1", "melting point", "98 °C"],
  ["Cc1ccc(S(=O)(=O)OC2CC(=O)N(Cc3ccccc3)C2)cc1 (stereo not given)", "melting point", "83 to 84 °C"],
  ["CC(C)(C)CCC(=N)NC(=S)Nc1ccc(Cl)cc1", "melting point", "135 to 137 °C"],
  ["COc1ccc(C(=O)CCCCCl)cc1S(N)(=O)=O", "melting point", "135 to 136 °C"],
  ["O=C(O)Cc1ccc2c(c1)Cc1ccccc1CO2", "melting point", "155 to 157 °C"],
  ["COC(=O)C=Cc1ccc(OCCN(C)c2ccccn2)c(F)c1", "melting point", "110 to 111 °C"],
  ["CCOC(=O)C1=C(C)NC(=S)N(C(=O)c2ccc([N+](=O)[O-])cc2)C1c1cccc([N+](=O)[O-])c1 (stereo not given)", "melting point", "139 to 141 °C"],
  ["Cc1oc2c(NC(=O)c3c(Cl)cccc3Cl)cccc2c1CN", "melting point", "200 to 203 °C"],
  ["CC1(C)NC(C)(C)c2ccccc21", "melting point", "36 to 38 °C"],
  ["CCN(CC)CCNC(=O)c1cnc2cc(I)ccc2n1", "melting point", "60 to 62 °C"],
  ["CCCC1(CCC)CCCc2c(Nc3ccc(Cl)cc3Cl)nc(C)nc21", "melting point", "238 to 244 °C"],
  ["C=C(C)Cc1cccc(C(=O)O)c1S", "melting point", "89 to 92 °C"],
  ["O=C(O)c1cc(Oc2cc(F)c(C(F)(F)F)c(Cl)c2)ccc1Br", "melting point", "113 to 117 °C"],
  ["CNc1ccc2cccc(OCCOc3nccnc3N3CCNCC3)c2n1", "melting point", "54 to 56.5 °C"],
  ["CN1CCn2nc(Nc3cc(-c4cccc(N5Cc6cc(N(C)C)ccc6C5=O)c4CO)cn(C)c3=O)cc2C1", "melting point", "148 to 150 °C"],
  ["CN1C(=O)N(CCC(NS(=O)(=O)c2ccc(-c3ccc(Cl)cc3)cc2)C(=O)NO)C(=O)C1(C)C (stereo not given)", "melting point", "117 to 120 °C"],
  ["COc1cc(COc2nn(-c3ccccc3)cc2C=CC(=O)NNC(C)=O)ccc1OCc1nc(-c2ccco2)oc1C", "melting point", "221 to 222 °C"],
  ["O=S(=O)(c1ccc(Cl)cc1)N(Cc1ccc(OC2CCOCC2)nc1)C1CCOCC1", "melting point", "123 to 125 °C"],
  ["Nc1scc2c1C(=O)c1c(Cl)cccc1-2", "melting point", "183 to 185 °C"],
  ["Cc1oc(-c2ccccc2)nc1CCOc1ccc(CC(C(=O)O)c2ccccc2)cc1 (stereo not given)", "melting point", "124 to 125 °C"]
]}

* * *

{"columns": ["compound", "melting point"],
 "data": [
  ["O=C1CCC2(CC1)Cc1ccccc1C2", "91 to 94 °C"],
  ["CCCC[C@H](NC(=O)[C@H](CC(C)C)NC(=O)OCc1ccc(F)cc1)C(=O)CSCc1ccco1", "67 to 68 °C"],
  ["O=c1c2cc(F)c(N3CCCC3)nc2n(-c2cccc(C(F)(F)F)c2)c(=O)n1OCc1ccccc1", "> 250 °C"],
  ["Cc1cnc(-c2c(F)cccc2F)nn1", "90 to 93 °C"],
  ["CC(Oc1ccc(Oc2ccccc2)cc1)(C(=O)O)C(F)(F)F (stereo not given)", "111 to 112 °C"],
  ["CC(=NOC(C)C)c1ccc2c(c1)ncn2-c1cccc(-c2cccnc2)c1", "77 to 80 °C"],
  ["O=c1c2ccc(Cl)cc2[nH]c2c(O)nn(CCN3CCN(c4ccccc4)CC3)c(=O)c12", "361 to 364 °C"],
  ["CN(C)c1nc(N)nc2c1ncn2C1C=CC(CO)C1 (stereo not given)", "173 to 174 °C"],
  ["CC(C)C(c1cncnc1C=NO)N(C)C(=O)Cc1ccccc1 (stereo not given)", "171 to 172 °C"],
  ["CC1(C)CC(=O)C(S(=O)(=O)Cc2ccccc2)=C(O)C1", "87 to 89 °C"]
]}
